- System: MCF7
- protocol_text: Cytotoxicity against Homo sapiens (human) MCF7 cells after 48 hr by MTT assay
- Format: functional, cell-based
- experimental_context: MCF7, 48 h

| molecule | IC50 [µg/mL] |
| --- | --- |
| N#CC1=C(N)Oc2c(ccc3ccc(/C=C/c4ccc(Cl)cc4)nc23)C1c1ccc(Cl)cc1 (stereo unspecified) | 5.6 |
| CCOC(=O)C1=C(N)Oc2c(ccc3ccc(/C=C/c4ccc(F)cc4)nc23)C1c1ccc(Br)cc1 (stereo unspecified) | 38.4 |
| CCOC(=O)C1=C(N)Oc2c(ccc3ccc(/C=C/c4ccc(Cl)cc4)nc23)C1c1ccc(Cl)cc1 (stereo unspecified) | 5.5 |
| CCOC(=O)C1=C(N)Oc2c(ccc3ccc(/C=C/c4ccc(Cl)cc4)nc23)C1c1ccc(Br)cc1 (stereo unspecified) | 10.3 |
| CCOC(=O)C1=C(N)Oc2c(ccc3ccc(/C=C/c4ccc(Br)cc4)nc23)C1c1ccc(Cl)cc1 (stereo unspecified) | 5.4 |
| N#CC1=C(N)Oc2c(ccc3ccc(/C=C/c4ccc(Br)cc4)nc23)C1c1ccc(Br)cc1 (stereo unspecified) | 3.9 |
